The reported numbers originate from patent US20260078130A1.

# SYSTEM_TESTED: human enzyme NAMPT (full length) (Homo sapiens, UniProt P43490)
# Construct: human enzyme NAMPT (full length)
# Sequence (P43490 whole entry): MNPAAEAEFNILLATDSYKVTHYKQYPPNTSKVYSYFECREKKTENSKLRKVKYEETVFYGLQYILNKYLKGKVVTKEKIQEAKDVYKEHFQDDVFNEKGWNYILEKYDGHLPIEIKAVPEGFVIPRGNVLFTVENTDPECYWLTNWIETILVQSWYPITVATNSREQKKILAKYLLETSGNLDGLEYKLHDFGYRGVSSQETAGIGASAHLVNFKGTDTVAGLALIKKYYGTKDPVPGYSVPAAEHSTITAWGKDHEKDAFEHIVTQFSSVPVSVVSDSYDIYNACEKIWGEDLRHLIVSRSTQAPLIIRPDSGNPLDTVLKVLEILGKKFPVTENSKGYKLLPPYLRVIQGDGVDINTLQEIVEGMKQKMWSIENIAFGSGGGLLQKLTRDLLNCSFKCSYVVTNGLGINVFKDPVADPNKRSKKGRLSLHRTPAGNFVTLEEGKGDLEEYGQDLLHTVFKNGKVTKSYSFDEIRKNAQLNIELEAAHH
# TEST_METHOD_NOTES: NMN fluorescence biochemical assay (stimulation of NMN synthesis by NAMPT)
# STUDY_CONDITIONS: NMN synthesis by purified human NAMPT (100 nM); concentration giving half-maximal activation; read-out: Enzymatic EC50
Quick reference: EC50 of the listed items.

Use the examples below as a reference point.
> print(dat)
                                   compound  measured.value
1  O=C1c2ccc(C3CC3)cc2C(Cc2ncccc2Br)N1Cc1ccc2[nH]c(=O)oc2c1 (stereo not drawn)        < 0.5 µM
2  O=C1c2ccccc2C(Cc2ncccc2Br)N1Cc1ccn2c(=O)[nH]nc2c1 (stereo not drawn)          ≥ 5 µM
3  O=C1NCC2(CC(CN3C(=O)c4ccccc4C3Cc3ncccc3Br)C2)O1 (stereo not drawn)        < 0.5 µM
4  O=C1c2ccc(Nc3ccccc3)cc2C(=O)N1Cc1ccc(O)cc1     0.5 to 5 µM
5  Cc1ccc2c(c1)C(=O)N(Cc1ccc3[nH]c(=O)oc3c1)C2=O     0.5 to 5 µM
6  Cc1ccnnc1CC1c2ccccc2C(=O)N1Cc1ccc2[nH]c(=O)oc2c1 (stereo not drawn)     0.5 to 5 µM
7  N#Cc1ccccc1CC1c2ccccc2C(=O)N1Cc1ccc2[nH]c(=O)oc2c1 (stereo not drawn)        < 0.5 µM
8  O=C1c2ccc(Br)cc2CN1Cc1ccc2[nH]c(=O)oc2c1     0.5 to 5 µM

Any idea what its EC50 is? The compound is Cn1ncc(Cl)c1CC1c2ccc(F)cc2C(=O)N1CC1CC2(CNC(=O)O2)C1 (stereo not drawn)
0.5 to 5 µM

Could you share which EC50 value was measured for `Cc1cccnc1C[C@@H]1c2ccccc2C(=O)N1Cc1ccc2[nH]c(=O)oc2c1` ?
≥ 5 µM

Entry under review: Cn1cc(Cl)c(CC2c3ccccc3C(=O)N2Cc2ccc3[nH]c(=O)oc3c2)n1 (stereo not drawn) . Reported EC50?
< 0.5 µM

Any idea what its EC50 is? The compound is COCCn1cc(Cl)c(CC2c3ccccc3C(=O)N2Cc2ccc3[nH]c(=O)oc3c2)n1 (stereo not drawn)
0.5 to 5 µM

So what's the measured EC50 for this one? `O=c1c2ccccc2ccn1Cc1ccc2[nH]nnc2c1`
≥ 5 µM

So what does the record say about EC50 for N#Cc1nccc(Cl)c1CC1c2ccccc2C(=O)N1Cc1ccc2[nH]c(=O)oc2c1 (stereo not drawn) ?
< 0.5 µM

Any idea what EC50 was measured for `O=C1c2cccnc2CN1Cc1ccc(O)cc1` ?
≥ 5 µM
